tested on: A549 NSCLC; experiment: NCI tumour cell line growth inhibition, 48 h; in the data active means GI50 below about 0.43 µM; inactive means the rest
*1 amine or outer side, *2 acyl side, *3 side chain or, on linkers, in order; H or OH if unused. Where a SMILES comes first, the peptide text is derived from it. Bridges are numbered along the chain shown (N, C = ends). [ ]: non-standard residue; d: D form. The star is where a group is joined. Phe(3,5-F2) = N[C@@H](Cc1cc(F)cc(F)c1)C(=O)O; Pro(4R-Me) = C[C@H]1CN[C@H](C(=O)O)C1; aThr = C[C@H](O)[C@H](N)C(=O)O; Pip = O=C(O)[C@@H]1CCCCN1; X10 = Fc1cc(C2CC2)ccc1N*; CO = O=C([*:1])[*:2]
Form entry, call: pick from true (active), false (inactive)

As a guide, the following entries are already answered.
>  <molecule>
CC(=O)OC1OC([C@@H]2c3cccc(O)c3C(=O)c3c(O)cc(C)cc32)C(O)C(O)C1O (stereo partly drawn)

>  <assigned-class>
true

$$$$
>  <molecule>
C[C@@H]1C[C@H]2C(=O)O[C@@H](C)[C@H](NC(=O)[C@H](Cc3cc(F)cc(F)c3)NC(=O)Nc3ccc(C4CC4)cc3F)C(=O)N3CCC[C@H]3C(=O)N3CCCC[C@H]3C(=O)N[C@@H](C)C(=O)N2C1 ({X10-CO}-[Phe(3,5-F2)][aThr]P[Pip]A[Pro(4R-Me)]; ester 2-C)

>  <assigned-class>
true

$$$$

Please turn your attention to the following entry.
[ask] How was "Cc1ccc2c(C)c3c(ccc4ccccc43)c[n+]2c1" classified in this test?
[reply] false

###

system: IGROV1 ovarian; experiment: NCI tumour cell line growth inhibition, 48 h; in the data active means GI50 below about 0.43 µM; inactive means the rest
*1 amine or outer side, *2 acyl side, *3 side chain or, on linkers, in order; H or OH if unused. Where a SMILES comes first, the peptide text is derived from it. Bridges are numbered along the chain shown (N, C = ends). [ ]: non-standard residue; d: D form. The star is where a group is joined. Phe(3,5-F2) = N[C@@H](Cc1cc(F)cc(F)c1)C(=O)O; Pro(4R-Me) = C[C@H]1CN[C@H](C(=O)O)C1; aThr = C[C@H](O)[C@H](N)C(=O)O; Pip = O=C(O)[C@@H]1CCCCN1; X10 = Fc1cc(C2CC2)ccc1N*; CO = O=C([*:1])[*:2]
// allowed return values: 1 for active, 0 for inactive

Recorded results for 10 compounds are shown here.
>  <compound>
CC1CCc2nc[nH]c(=O)c21 (stereo not given)

>  <assigned-class>
0

$$$$
>  <compound>
COc1cnc2c(c1)C(=O)c1c-2n(CCCN2CCOCC2)c(=O)c2cc(F)ccc12

>  <assigned-class>
1

$$$$
>  <compound>
Cc1ccc(NC(=O)Nc2ccc(-c3cccnc3)cc2N2CCC(CO)CC2)cc1

>  <assigned-class>
0

$$$$
>  <compound>
C=CCO[C@H]1CO[C@H]2[C@@H]1OC[C@@H]2Oc1ccc(Nc2ccnc(Nc3ccc(O[C@H]4CO[C@H]5[C@@H]4OC[C@@H]5OCC=C)c(Cl)c3)n2)cc1Cl

>  <assigned-class>
0

$$$$
>  <compound>
C=CC(=O)Nc1cc(Nc2ncc(C(=O)OC(C)C)c(-c3cn(C)c4ccccc34)n2)c(OC)cc1N(C)CCN(C)C

>  <assigned-class>
1

$$$$
>  <compound>
COc1ccc2c(c1)sc1nc(-c3ccccc3)c(-c3cccc4ccccc34)n12

>  <assigned-class>
0

$$$$
>  <compound>
CCN1/C(=C\c2cc[n+](CC)c3ccccc23)C=Cc2ccccc21

>  <assigned-class>
1

$$$$
>  <compound>
CCC(=O)[C@H](C)[C@@H](OC(=O)[C@H](C)CC)[C@H](C)[C@H]1OC(CC)=C(C)C(=O)[C@@H]1C

>  <assigned-class>
0

$$$$
>  <compound>
C[C@@H]1C[C@H]2C(=O)O[C@@H](C)[C@H](NC(=O)[C@H](Cc3cc(F)cc(F)c3)NC(=O)Nc3ccc(C4CC4)cc3F)C(=O)N3CCC[C@H]3C(=O)N3CCCC[C@H]3C(=O)N[C@@H](C)C(=O)N2C1 ({X10-CO}-[Phe(3,5-F2)][aThr]P[Pip]A[Pro(4R-Me)]; ester 2-C)

>  <assigned-class>
1

$$$$
>  <compound>
COC1/C=C/OC2(C)Oc3c(C)c(O)c4c(O)c(c(/C=N/Nc5ccc([N+](=O)[O-])cc5[N+](=O)[O-])c(O)c4c3C2=O)NC(=O)C(C)=C/C=C/C(C)C(O)C(C)C(O)C(C)C(OC(C)=O)C1C (stereo not given)

>  <assigned-class>
0

$$$$

[ask] Hi, do you know how NS(=O)(=O)OC[C@@H]1C[C@@H](n2ccc3c(NC4CCc5ccccc54)ncnc32)C[C@@H]1O (stereo not given in full) came out in this test?
[reply] 0

[ask] What is the recorded call for this compound in the test? "Nc1ccccc1C#C/C=C\C#Cc1ccccc1OC(F)(F)F"
[reply] 0

[ask] Returns: the outcome recorded for "Cc1ccc2c(C)c3c(ccc4ccccc43)c[n+]2c1" in this assay.
[reply] 0

[ask] Hi, sorry to bother you, what did the test record for "Cc1nc2sccn2c1-c1csc(Nc2ccccc2Cl)n1" ?
[reply] 0

[ask] // param item: COC([CH2][Hg][n]1cnc2c1c(=O)n(C)c(=O)n2C)CN1C(=O)c2ccccc2S1(=O)=O (stereo not given) ; yields the recorded call
[reply] 0

The measured values listed here are drawn from PubChem BioAssay (NCI).
